Experiment: Quantitative High-Throughput drug screen in 47 multiple myeloma cell lines against the NCATS MIPE library collection: PCM6_Riken cell viability assay (AID 1919870); further: nearly all actives have a fitted effect of over 30% in size
Details: CellTiter-Glo ATP, 48 h; series mostly up to 45.8 µM
Records with an inconclusive call do not appear. Calls of active or inactive are those of the source. The call rests on the fitted dose curve; in most records, active means well fitted cell-killing curve with a large enough effect; inconclusive means small, poorly fitted or top-dose-only effect, or effect the other way; inactive means no such curve, though single readings can be large or run the other way.
Pick one: active, inactive

Recorded call for CCCCC(C=O)NC(=O)C(CC(C)C)NC(=O)OCc1ccccc1 (centres undefined) ? inactive

Recorded call for COc1cc(CNC(=O)CCCCC=CC(C)C)ccc1O ? inactive

====

Test system: Zika virus NS2B-NS3 protease
Assay: Primary screen GU AMC qHTS for Zika virus inhibitors (AID 1347154); further: nearly all actives have a fitted effect of over 70% in size
Conditions: Zika NS2B-NS3 unlinked protease, AMC fluorogenic substrate; series mostly up to 54.1 µM
Records with an inconclusive call do not appear. Active and inactive are the calls of the source. Calls come from the whole dose curve; as a rule, active = well fitted inhibition curve with a large enough effect; inconclusive = small, poorly fitted or top-dose-only effect; inactive = flat fitted curve, though single readings scatter.
Pick one: T for active, F for inactive

INSERT INTO results (compound, assigned_category) VALUES
  ('COC(=O)[C@H](c1ccccc1Cl)N1CCc2sccc2C1', 'F'),
  ('CCC=CC[C@H]1C(=O)CC[C@@H]1CC(=O)OC', 'F'),
  ('O=C1C(c2c(O)[nH]c3ccccc23)=Nc2ccccc21', 'F'),
  ('Cc1ccc2c(c1)c1c(n2CCc2ccc(C)nc2)CCN(C)C1', 'F'),
  ('OC(c1cc(C(F)(F)F)nc2c(C(F)(F)F)cccc12)C1CCCCN1 (configuration not stated)', 'F'),
  ('CC(C)c1onc(-c2c(Cl)cccc2Cl)c1COc1ccc(C=Cc2cccc(C(=O)O)c2)c(Cl)c1', 'T'),
  ('OC[C@H]1O[C@@H](Oc2ccc(O)cc2)[C@H](O)[C@@H](O)[C@H]1O', 'F'),
  ('CCC(=C(c1ccc(O)cc1)c1ccc(OCCNC)cc1)c1ccccc1', 'F'),
  ('COc1cc(Nc2nc3ccccc3nc2NS(=O)(=O)c2ccc(NC(=O)c3ccc(C)c(OC)c3)cc2)cc(OC)c1', 'F'),
  ('C[C@]12CCC3=C4CCC(=O)C=C4CC[C@@H]3[C@H]1CC[C@@]2(O)CC#N', 'F');

Recorded call for CC(O)=C(C#N)C(=O)Nc1ccc(C(F)(F)F)cc1 ? F

Recorded call for CCOC(=O)N1CCN([N+]([O-])=NOc2cc(ON=[N+]([O-])N3CCN(C(=O)OCC)CC3)c([N+](=O)[O-])cc2[N+](=O)[O-])CC1 ? F

Recorded call for C[C@@H]1[C@H](C)CC[C@]2(C(=O)O)CC[C@]3(C)C(=CC[C@@H]4[C@@]5(C)CC[C@H](O)C(C)(C)[C@H]5CC[C@]43C)[C@@H]12 ? F

Recorded call for Cc1ccc(NC(=O)c2cccc(N(C)C)c2)cc1NC(=O)c1ccc(O)cc1 ? F

Recorded call for C[C@@H]1CC=CC=CC=CC=C[C@@H](O[C@@H]2O[C@H](C)[C@@H](O)[C@H](N)[C@H]2O)C[C@@H]2O[C@](O)(C[C@@H](O)C[C@@H]3O[C@@H]3C=CC(=O)O1)C[C@H](O)[C@@H]2C(=O)O ? F

Recorded call for CC[C@]1(O)C[C@H]2CN(CCC3=c4ccccc4=N[C]3[C@@](C(=O)OC)(c3cc4c(cc3OC)N(C)[C@H]3[C@@](O)(C(N)=O)[C@H](O)[C@]5(CC)C=CCN6CC[C@]43[C@@H]65)C2)C1 ? F

Recorded call for CN1C(=O)C[C@H](C(=O)N[C@@H](Cc2cnc[nH]2)C(=O)N2CCC[C@@H]2C(N)=O)NC1=O ? F
